- tgt: FLuc-C-HiBiT (firefly luciferase) (Photinus pyralis, UniProt P08659, form not given/L550V)
- protocol.description: SDR assay, FLuc-C-HiBiT
- recorded.conditions: - ATP; SDR max. response; clade S
value.kind: % Activity (max response, - ATP)
Show the value, then the unit it is measured in.

CC(NC(=O)C1CCN(C(=O)c2ncn3c2COC(c2ccc(F)cc2)C3)CC1)c1ccc(F)cc1 (stereo not shown) [NCGC00449825-01] has a reported % Activity (max response, - ATP) of 0.00%

The recorded % Activity (max response, - ATP) for entry COc1ccc(C2Cn3cnc(C(=O)N4CCC(C(=O)NCc5ccc(C)cc5)CC4)c3CO2)cc1 (stereo not shown) [NCGC00449866-01] equals -10.00%

Per the records, this compound ( CC(NC(=O)C1CCN(C(=O)c2ncn3c2COC(c2ccc(Cl)cc2)C3)CC1)c1ccccc1 (stereo not shown) [NCGC00449853-01] ) has % Activity (max response, - ATP) equal to 0.00%

// % Activity (max response, - ATP) lookup, compound = O=C(NCc1ccccc1Cl)C1CCN(C(=O)c2ncn3c2COC(c2ccccc2)C3)CC1 (stereo not shown) [NCGC00449786-01] , result: 0.00%

###

Provide the reported FLuc Enzyme of each item.
- tgt: FLuc-C-HiBiT (firefly luciferase) (Photinus pyralis, UniProt P08659, form not given/L550V)
- protocol.description: Firefly luciferase (FLuc) enzymatic luminescence assay, FLuc-C-HiBiT
- Type: biochemical
- Parameters: key: % normalized; no enzyme control = 100% inhibition, DMSO = 0
- recorded.conditions: sheet Figure 1g (values as in Figure 1f); normalized activity; Log [Compound], M -7.35

Reported FLuc Enzyme of Fc1ccc(-c2cn3cc(Cc4ccccc4)sc3n2)cc1 [compound 00102110] : -3.9

The reported FLuc Enzyme of the compound CC(CNC(=O)C1CCN(C(=O)c2ncn3c2COC(c2ccccc2)C3)CC1)c1ccccc1 (centres unmarked) [compound 00449795] was 4.2

Input Cc1ccc(-n2ncc3c(N4CCCCCC4)ncnc32)cc1 [compound 00139018] . Output FLuc Enzyme: -13.2

Entry COc1ccc(-c2nc(-c3ccc(C(=O)O)cc3)no2)cc1 [compound 00168104] ; FLuc Enzyme = -27.2

Reported FLuc Enzyme ( O=C(O)CCSc1nnc(-c2ccc(Cl)cc2Cl)o1 [compound 00103142] ) = -2.8

Form field FLuc Enzyme, entry CNC(=O)c1cccc2c1CCN2C(=O)Nc1ccc(C)cc1 [compound 00430160] : -1.2

FLuc Enzyme measured on O=C(O)c1cccc2c1CCN2C(=O)Nc1ccc(F)cc1 [compound 00432687] = -2.8

The recorded FLuc Enzyme for entry CC1CCCN(c2ncnc3c2cnn3-c2ccccc2)C1 (centres unmarked) [compound 00081381] equals 1.6

###

- tgt: FLuc-C-HiBiT (Photinus pyralis, UniProt P08659)
- Construct: firefly luciferase with C-terminal HiBiT tag, E. coli expressed
- Sequence (P08659 whole entry, looked up): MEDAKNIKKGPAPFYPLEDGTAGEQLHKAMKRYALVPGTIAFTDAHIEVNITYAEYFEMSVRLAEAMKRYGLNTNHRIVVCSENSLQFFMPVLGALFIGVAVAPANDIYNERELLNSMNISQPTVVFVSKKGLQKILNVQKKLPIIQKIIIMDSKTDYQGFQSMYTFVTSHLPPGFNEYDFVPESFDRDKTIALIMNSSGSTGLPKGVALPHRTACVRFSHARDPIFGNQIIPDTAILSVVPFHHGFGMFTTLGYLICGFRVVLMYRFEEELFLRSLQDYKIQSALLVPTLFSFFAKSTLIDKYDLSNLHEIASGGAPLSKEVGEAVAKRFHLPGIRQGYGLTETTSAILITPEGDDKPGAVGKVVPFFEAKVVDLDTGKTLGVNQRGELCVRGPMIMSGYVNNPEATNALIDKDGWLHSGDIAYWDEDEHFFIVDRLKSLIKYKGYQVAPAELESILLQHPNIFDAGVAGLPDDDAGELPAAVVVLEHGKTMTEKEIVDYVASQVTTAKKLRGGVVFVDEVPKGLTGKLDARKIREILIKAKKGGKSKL
- protocol.description: biochemical
- recorded.conditions: enzyme activity, 10 uM ATP; read-out: IC50 or SDR50 (mM) / FLuc E
Assignment: determine reported IC50 for the given compounds.
Answer in mM, number only, no unit symbol.

Entry O=C(O)COCC(=O)N[C@H]1CCN2C(=O)c3cc(/C=C/c4ccccc4)ccc3NC(=O)[C@H]12 ; assay system FLuc-C-HiBiT (Photinus pyralis, UniProt P08659); IC50 recorded at 0.0124

The compound O=C(NCCc1ccccc1Cl)c1ccc2c(c1)nc1n2CCOC1 , tested on FLuc-C-HiBiT (Photinus pyralis, UniProt P08659), showed IC50 of 0.007

Short answer on FLuc-C-HiBiT (Photinus pyralis, UniProt P08659) for Nc1nc2c(nc(S)n2[C@@H]2O[C@H](CO)[C@@H](O)[C@H]2O)c(=O)[nH]1 , IC50: 0.00248

Item COc1ccc(NC(=O)C2CCN(C(=O)c3ncn4c3COC(c3ccccc3)C4)CC2)cc1 (centres unmarked) ; assay system FLuc-C-HiBiT (Photinus pyralis, UniProt P08659); IC50 reported as 0.00785

The compound Cc1ccc(-c2cc3c(=O)n(CCNC(=O)c4cccnc4)ccn3n2)c(C)c1 on FLuc-C-HiBiT (Photinus pyralis, UniProt P08659): IC50 was 0.00989

For the compound Cc1cc(-c2cc3c(cn2)CN(Cc2cccs2)CCN3)ccn1 , the measured IC50 on FLuc-C-HiBiT (Photinus pyralis, UniProt P08659) was 0.0114

###

- tgt: P. pyralis FLuc (Photinus pyralis, UniProt P08659)
- Sequence (P08659 whole entry): as the sequence (P08659 whole entry, looked up) above
- protocol.description: FLuc enzymatic luminescence assay, P. pyralis FLuc
- Assay type: biochemical
- recorded.conditions: Sample Data Type FLuc-Km
For each entry below, report its Efficacy value.
Just the number, please, no unit after it.

Summary for this compound, CC(C)NC(=O)C1CCN(C(=O)c2ncn3c2COC(c2ccccc2)C3)CC1 (stereo not shown) : Efficacy is -88.78

Lab book: Efficacy of CC(C)CCNC(=O)C1CCN(C(=O)c2ncn3c2COC(c2ccc(F)cc2)C3)CC1 (stereo not shown) noted as -22.97

Efficacy for CCC(CC)NC(=O)C1CCN(C(=O)c2ncn3c2COC(c2ccc(F)cc2)C3)CC1 (stereo not shown) is -16.84

Efficacy reported for this compound Cc1ccc(C2Cn3cnc(C(=O)N4CCC(C(=O)NCCC(C)C)CC4)c3CO2)cc1 (stereo not shown) : -26.32

###

Answer each item with its documented SDR No ATP.
- tgt: FLuc-C-NLuc (firefly luciferase) (Photinus pyralis, UniProt P08659, form not given/L550V)
- protocol.description: SDR assay, FLuc-C-NLuc
- recorded.conditions: 1 nM FLuc-C-NLuc; normalized activity; Log [Compound], M -7.35
No unit in the answer, only the number.

SDR No ATP in this record for COc1ccc(-c2nc(-c3ccc(C(=O)O)cc3)no2)cc1 : 5.3

Recorded result, Cc1ccc(-n2ncc3c(N4CCCCCC4)ncnc32)cc1 , SDR No ATP: -1.6

Sample CC(CNC(=O)C1CCN(C(=O)c2ncn3c2COC(c2ccccc2)C3)CC1)c1ccccc1 (centres unmarked) ; SDR No ATP observed: -2.1

For this compound ( O=C(O)c1cccc2c1CCN2C(=O)Nc1ccc(F)cc1 ), measured SDR No ATP is 10.4

Measured SDR No ATP, CNC(=O)c1cccc2c1CCN2C(=O)Nc1ccc(C)cc1 : -0.347

In plain terms, CC1CCCN(c2ncnc3c2cnn3-c2ccccc2)C1 (centres unmarked) has a documented SDR No ATP of 3.1

So for Fc1ccc(-c2cn3cc(Cc4ccccc4)sc3n2)cc1 , the logged SDR No ATP turned out to be 7.5

compound O=C(O)CCSc1nnc(-c2ccc(Cl)cc2Cl)o1 , SDR No ATP observed: 3.8

###

- tgt: UniProt:P00374
- Sequence (P00374 2-187): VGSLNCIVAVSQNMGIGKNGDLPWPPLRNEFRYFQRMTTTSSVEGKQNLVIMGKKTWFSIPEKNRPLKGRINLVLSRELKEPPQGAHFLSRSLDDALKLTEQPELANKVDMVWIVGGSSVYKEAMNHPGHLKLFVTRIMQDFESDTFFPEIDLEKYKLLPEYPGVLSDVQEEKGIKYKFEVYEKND
- protocol.description: SDR assay, purified DHFR-C-HiBiT
value.kind: pEC50
Please report pEC50 as the negative decimal logarithm of the molar concentration, giving only the number.

Short answer for C#CCC(Cc1cnc2nc(N)nc(N)c2n1)c1ccc(C(=O)N[C@@H](CCC(=O)O)C(=O)O)cc1 (stereo partly shown) [pralatrexate] : pEC50 was 8.99

###

- tgt: FLuc-N-HiBiT (firefly luciferase) (Photinus pyralis, UniProt P08659, form not given/L550V)
- Sequence (P08659 2-550 L550V, form open): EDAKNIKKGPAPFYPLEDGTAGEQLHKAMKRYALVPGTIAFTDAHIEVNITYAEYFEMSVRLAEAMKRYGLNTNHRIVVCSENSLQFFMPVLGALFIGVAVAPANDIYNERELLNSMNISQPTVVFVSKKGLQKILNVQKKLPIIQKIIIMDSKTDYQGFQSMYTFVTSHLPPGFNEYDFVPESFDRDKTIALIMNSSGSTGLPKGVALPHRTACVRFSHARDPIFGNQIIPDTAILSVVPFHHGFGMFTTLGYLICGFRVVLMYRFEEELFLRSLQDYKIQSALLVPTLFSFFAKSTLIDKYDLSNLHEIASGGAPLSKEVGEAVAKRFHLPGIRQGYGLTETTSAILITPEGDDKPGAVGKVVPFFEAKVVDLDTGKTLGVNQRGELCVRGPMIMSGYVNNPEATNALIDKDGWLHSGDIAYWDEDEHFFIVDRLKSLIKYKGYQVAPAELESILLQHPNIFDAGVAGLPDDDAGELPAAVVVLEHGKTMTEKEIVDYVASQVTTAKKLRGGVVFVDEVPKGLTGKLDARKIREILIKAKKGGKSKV
- protocol.description: SDR assay, FLuc-N-HiBiT
- recorded.conditions: ATP-independent pyrazolo pyrimidine (clade P)
value.kind: pSDR50 (clade P)
Reply with just the number.

pSDR50 (clade P) recorded for this compound, O=c1cc(N2CCOCC2)nc2c3ccccc3ccn12 , is 4.78

Form field pSDR50 (clade P), entry CC1CCCN(c2ncnc3c2cnn3-c2ccc(Cl)cc2)C1 (stereo not shown) : 5.51

Record summary for c1ccc(-n2ncc3c(N4CCCCC4)ncnc32)cc1 : reported pSDR50 (clade P) = 5.48

Value of measured pSDR50 (clade P) for the entry CC1CCCN(c2ncnc3c2cnn3-c2ccccc2)C1 (stereo not shown) : 5.61

###

- tgt: FLuc-C-HiBiT (firefly luciferase) (Photinus pyralis, UniProt P08659, form not given/L550V)
- protocol.description: Firefly luciferase (FLuc) enzymatic luminescence assay, FLuc-C-HiBiT
- Assay type: biochemical
value.kind: FLuc Enzyme
Enter the number alone.

Query CNC(=O)c1cccc2c1CCN2C(=O)Nc1ccc(C)cc1 [compound 00430160] yields FLuc Enzyme of -0.342

O=C(O)CCSc1nnc(-c2ccc(Cl)cc2Cl)o1 [compound 00103142] has a reported FLuc Enzyme of 3.1

# FLuc Enzyme (compound: COc1ccc(-c2nc(-c3ccc(C(=O)O)cc3)no2)cc1 [compound 00168104] ) is 4.9

Lab note: Fc1ccc(-c2cn3cc(Cc4ccccc4)sc3n2)cc1 [compound 00102110] gave FLuc Enzyme of 2.3

Note to self: FLuc Enzyme recorded for Cc1ccc(-n2ncc3c(N4CCCCCC4)ncnc32)cc1 [compound 00139018] was -3.4

Reported FLuc Enzyme ( CC1CCCN(c2ncnc3c2cnn3-c2ccccc2)C1 (centres unmarked) [compound 00081381] ) = 7.2

FLuc Enzyme reported for this compound O=C(O)c1cccc2c1CCN2C(=O)Nc1ccc(F)cc1 [compound 00432687] : 3.1

compound CC(CNC(=O)C1CCN(C(=O)c2ncn3c2COC(c2ccccc2)C3)CC1)c1ccccc1 (centres unmarked) [compound 00449795] , FLuc Enzyme observed: 4.1
